Every entry's value here was drawn from paper PMC4081072.

Target: T1, Nrd1 307-491 WT (Saccharomyces cerevisiae, UniProt P53617 307-491)
T1 sequence: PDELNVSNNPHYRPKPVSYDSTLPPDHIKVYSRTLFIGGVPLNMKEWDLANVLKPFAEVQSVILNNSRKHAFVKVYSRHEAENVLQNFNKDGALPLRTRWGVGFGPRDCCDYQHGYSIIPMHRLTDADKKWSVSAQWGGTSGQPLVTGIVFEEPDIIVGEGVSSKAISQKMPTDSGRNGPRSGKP
Experiment: fluorescence anisotropy; prolonged incubation between aliquots; FA: 10 nM RNA, 50 mM sodium phosphate pH 8, 150 mM NaCl, 10 mM beta-mercaptoethanol, 20 C (protein stock in 300 mM NaCl); NMR: same buffer with 300 mM NaCl, 20
Details: protein: recombinant; tags: C-terminal His6; label: 5' fluorescein or TAMRA (FA); unlabeled (NMR); may form quadruplex when free
PARAMETER: pKd
Numbers only, as −log10 of the molar value.

pKd for GGGGGGG (ssRNA) [G7] ?
5.24
